Exercise: state measured pIC50 for each of the compounds provided.
# Tested on: Primary human T-cells
# assay procedure: Primary Human T-Cell Proliferation Assay Stimulated with IL-2 (CellTiter-Glo)
# Type: cell-based
# test context: Homo sapiens, T-cell, primary human T-cells stimulated with IL-2, proliferation; read-out: IC50, Example 42
One number for each entry, as −log10 of the molar value.

                            chemical_smiles  recorded_result
0  Cc1cnc(Nc2ccc(S(N)(=O)=O)cc2)nc1Nc1ccc2c(c1)NC(=O)CO2             6.76
1  NS(=O)(=O)c1cccc(Nc2ncc(F)c(Nc3cccc(-c4cnco4)c3)n2)c1             6.54
2  NS(=O)(=O)c1cccc(Nc2ncc(F)c(Nc3ccc(Cl)c(Cl)c3)n2)c1             6.46
3  Cc1ccc(Nc2ncc(C)c(Nc3ccc4c(c3)NC(=O)CO4)n2)cc1S(N)(=O)=O             7.57
4  NS(=O)(=O)c1cccc(Nc2ncc(F)c(Nc3cccc4cccnc34)n2)c1             6.17
5  Cc1ccc(Nc2ncc(F)c(N[C@H]3[C@@H](C(N)=O)[C@@H]4C=C[C@H]3C4)n2)cc1S(N)(=O)=O             5.97
6  Cc1ccc(Nc2ncc(F)c(Nc3cccc4c(CC#N)c[nH]c34)n2)cc1S(N)(=O)=O             6.65
7  COc1ccc(Nc2nc(Nc3cc(C)c(F)c(S(N)(=O)=O)c3)ncc2F)cc1Cl             6.33
8  Cc1cc(Nc2ncc(F)c(Nc3ccc(OC(F)(F)F)c(Cl)c3)n2)cc(S(N)(=O)=O)c1Cl             5.36
9  COc1cc(Nc2nc(Nc3ccc(Cl)c(S(N)(=O)=O)c3)ncc2F)ccc1Cl             5.34

Quick batch: pIC50 for everything below.
1. NS(=O)(=O)c1ccc(Nc2ncc(F)c(Nc3ccc(CCCCO)cc3)n2)cc1
2. CN1C(=O)COc2ccc(Nc3nc(Nc4ccc(S(N)(=O)=O)cc4)ncc3F)cc21
3. Cc1cnc(Nc2cccc(S(N)(=O)=O)c2)nc1Nc1ccc2c(c1)N(C)C(=O)CS2
4. CC(C)c1ccc(Nc2ncc(F)c(Nc3ccc4oc(C#N)cc4c3)n2)cc1S(N)(=O)=O
5. Cc1ccc(Nc2nc(Nc3cccc(S(N)(=O)=O)c3)ncc2F)cc1C#N
6. N#CCN1C(=O)COc2ccc(Nc3nc(Nc4ccc(S(N)(=O)=O)cc4)ncc3F)cc21
7. COc1ccc(Nc2nc(Nc3cccc(S(N)(=O)=O)c3)ncc2F)nc1N
8. C=Cc1ccc(Nc2nc(Nc3ccc(C)c(S(N)(=O)=O)c3)ncc2F)cc1

[5.93, 5.19, 7.34, 5.80, 6.21, 7.15, 5.41, 6.01]
